# Tested on: E. faecium OC3312
Parameter MIC: see the listing below.
Reported Metric: MIC (µg/mL)

1) CC(=O)N=C(C)NC[C@H]1CN(c2ccc(N3CCOCC3)c(F)c2)C(=O)O1
64
2) CSC(=NC#N)NCC1CN(c2ccc(N3CCOCC3)c(F)c2)C(=O)O1 (stereo in doubt)
8
3) CN=C(NC#N)NC[C@H]1CN(c2ccc(N3CCOCC3)c(F)c2)C(=O)O1
32
4) CC(=NC[C@H]1CN(c2ccc(N3CCOCC3)c(F)c2)C(=O)O1)NC#N
2
5) CN(C)C(=NC#N)NC[C@H]1CN(c2ccc(N3CCOCC3)c(F)c2)C(=O)O1
64
6) CCCC(=NC#N)NC[C@H]1CN(c2ccc(N3CCOCC3)c(F)c2)C(=O)O1
8

---

Parameter MIC: see the listing below.
# Tested on: MRSA OC2878
# Assay Protocol: NCCLS broth microdilution MIC, MRSA OC2878
# Assay type: cell-based, methicillin-resistant Staphylococcus aureus
# Condition Label: Staphylococcus aureus, cation adjusted Mueller-Hinton broth, 35° C., 16-20 hours
# Experimental: Minimal inhibitory concentration (MIC) has been an indicator of in vitro antibacterial activity widely used in the art. The in vitro antimicrobial activity of the compounds was determined by the microdilution broth method following the test method from the National Committee for Laboratory Standards (NCCLS). […] Following inoculation of the microdilution trays, the trays are incubated at 35° C. for 16-20 hours and then read. […]
Reported Metric: MIC (µg/mL)

1) CN=C(NC#N)NC[C@H]1CN(c2ccc(N3CCOCC3)c(F)c2)C(=O)O1
32
2) CN(C)C(=NC#N)NC[C@H]1CN(c2ccc(N3CCOCC3)c(F)c2)C(=O)O1
32
3) CCCC(=NC#N)NC[C@H]1CN(c2ccc(N3CCOCC3)c(F)c2)C(=O)O1
8
4) CC(=NC[C@H]1CN(c2ccc(N3CCOCC3)c(F)c2)C(=O)O1)NC#N
1
5) CSC(=NC#N)NCC1CN(c2ccc(N3CCOCC3)c(F)c2)C(=O)O1 (stereo in doubt)
4
6) CC(=N)NC[C@H]1CN(c2ccc(N3CCOCC3)c(F)c2)C(=O)O1
128
7) CC(=O)N=C(C)NC[C@H]1CN(c2ccc(N3CCOCC3)c(F)c2)C(=O)O1
16

---

# System: S. aureus OC4172
# Assay Protocol: NCCLS broth microdilution MIC, S. aureus OC4172
# Type: cell-based
# Condition Label: Staphylococcus aureus, cation adjusted Mueller-Hinton broth, 35° C., 16-20 hours
Entries whose MIC is below 8 µg/mL take T; entries at or above 8 µg/mL take F.

1) CSC(=NC#N)NCC1CN(c2ccc(N3CCOCC3)c(F)c2)C(=O)O1 (stereo in doubt)
T
2) CC(=NC[C@H]1CN(c2ccc(N3CCOCC3)c(F)c2)C(=O)O1)NC#N
T
3) CC(=O)N=C(C)NC[C@H]1CN(c2ccc(N3CCOCC3)c(F)c2)C(=O)O1
F
4) CC(=N)NC[C@H]1CN(c2ccc(N3CCOCC3)c(F)c2)C(=O)O1
F
5) CN(C)C(=NC#N)NC[C@H]1CN(c2ccc(N3CCOCC3)c(F)c2)C(=O)O1
F
6) CN=C(NC#N)NC[C@H]1CN(c2ccc(N3CCOCC3)c(F)c2)C(=O)O1
F
